- measured_on: Estrogen receptor (Homo sapiens) + Estrogen receptor beta (Homo sapiens) (UniProt P03372+Q92731)
- Sequence (P03372 whole entry, looked up): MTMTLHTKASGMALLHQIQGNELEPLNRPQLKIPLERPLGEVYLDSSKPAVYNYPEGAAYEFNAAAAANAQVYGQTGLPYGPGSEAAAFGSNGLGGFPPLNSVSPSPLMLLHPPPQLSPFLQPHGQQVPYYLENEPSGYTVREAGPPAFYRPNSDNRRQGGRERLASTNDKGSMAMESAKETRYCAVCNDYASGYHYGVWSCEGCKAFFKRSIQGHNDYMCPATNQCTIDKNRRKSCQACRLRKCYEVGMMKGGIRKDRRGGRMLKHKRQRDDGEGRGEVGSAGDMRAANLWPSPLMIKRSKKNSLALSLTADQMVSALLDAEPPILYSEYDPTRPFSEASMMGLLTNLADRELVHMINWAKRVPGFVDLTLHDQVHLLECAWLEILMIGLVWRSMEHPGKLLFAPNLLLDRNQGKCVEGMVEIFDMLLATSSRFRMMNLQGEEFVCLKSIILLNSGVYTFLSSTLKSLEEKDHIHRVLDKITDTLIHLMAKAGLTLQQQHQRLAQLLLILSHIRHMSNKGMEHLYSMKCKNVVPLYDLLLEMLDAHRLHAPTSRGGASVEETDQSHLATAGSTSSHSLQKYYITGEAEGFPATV
- Sequence (Q92731 whole entry, looked up): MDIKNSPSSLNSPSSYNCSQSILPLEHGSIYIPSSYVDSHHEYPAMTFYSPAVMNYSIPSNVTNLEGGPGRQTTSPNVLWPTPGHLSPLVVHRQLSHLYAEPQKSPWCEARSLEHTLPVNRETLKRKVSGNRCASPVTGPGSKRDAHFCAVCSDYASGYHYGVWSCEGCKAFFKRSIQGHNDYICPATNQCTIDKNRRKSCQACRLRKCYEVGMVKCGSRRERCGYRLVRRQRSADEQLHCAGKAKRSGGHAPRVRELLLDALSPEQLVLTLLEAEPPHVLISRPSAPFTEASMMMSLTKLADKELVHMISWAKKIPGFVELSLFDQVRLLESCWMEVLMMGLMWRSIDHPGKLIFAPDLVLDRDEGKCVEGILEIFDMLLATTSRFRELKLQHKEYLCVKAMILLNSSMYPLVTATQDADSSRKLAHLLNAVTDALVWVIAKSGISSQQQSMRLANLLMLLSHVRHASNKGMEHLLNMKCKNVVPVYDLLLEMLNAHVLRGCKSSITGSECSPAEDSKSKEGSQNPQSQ
- test_method_notes: OT_ER_ERaERb_0480: Odyssey Thera (OT) 8-hour HEK293T Protein-Complementation Assay for Estrogen Receptor-alpha/-beta Heterodimer (AID 2283352)
Results filed as inconclusive are left out. The source made the active and inactive calls. How the source made its calls: active means hit-call score of the fitted dose curve at least 0.9, where 1 is the maximum; inconclusive means response in the unintended direction; inactive means score below 0.9.
Classes used: active, inactive

[[record]]
compound = "CCCC(O)C(CC)CO (configuration not stated)"
qualitative_label = "inactive"

[[record]]
compound = "CC1COC(=O)O1 (configuration not stated)"
qualitative_label = "inactive"

[[record]]
compound = "CC(C)(CO)CO"
qualitative_label = "inactive"

[[record]]
compound = "O=S(=O)(O)c1cc(S(=O)(=O)O)c2c(N=Nc3ccccc3)c(O)ccc2c1"
qualitative_label = "inactive"

[[record]]
compound = "O=C(OCc1ccccc1)c1ccccc1O"
qualitative_label = "active"

[[record]]
compound = "CC(CCO)CC(C)(C)C (configuration not stated)"
qualitative_label = "inactive"

[[record]]
compound = "CC(=O)CC(=O)N(C)C"
qualitative_label = "inactive"

[[record]]
compound = "C=CC(C)CCCC(C)(C)O (configuration not stated)"
qualitative_label = "inactive"

[[record]]
compound = "CC(C)C(=O)c1ccccc1"
qualitative_label = "inactive"

[[record]]
compound = "CCC(C)(CCCC(C)C)OC(C)=O (configuration not stated)"
qualitative_label = "inactive"

[[record]]
compound = "C=CCCCCCCCCC(=O)OCC"
qualitative_label = "inactive"

[[record]]
compound = "CCCCCCCCOC(=O)c1ccc(O)cc1"
qualitative_label = "active"

[[record]]
compound = "CCCCCCCCCCCCN1CCOCC1"
qualitative_label = "active"

[[record]]
compound = "COc1cc(OC)c2ccc(=O)oc2c1"
qualitative_label = "inactive"

[[record]]
compound = "CCCCCCCCCCCCS"
qualitative_label = "inactive"

[[record]]
compound = "CC(=O)c1ccc(O)cc1"
qualitative_label = "inactive"

[[record]]
compound = "CN(C)C"
qualitative_label = "inactive"


---

- Read-out: urokinase plasminogen activator (uPA), PLAU (gene 5328)
- test_method_notes: BSK_BE3C_uPA: BioMAP Diversity Plus: BE3C Assay for urokinase plasminogen activator (uPA) Biomarker Activity (AID 2283038)
- measurement_conditions: primary human bronchial epithelial cells; actives raise or lower the signal
Calls of active or inactive are those of the source. Rule for the calls: active = hit-call score of the fitted dose curve at least 0.9, where 1 is the maximum; inactive = score below 0.9.
Labels: active, inactive

[[record]]
molecule = "CC(=O)CCC=C(C)CCC=C(C)C"
qualitative_label = "inactive"

[[record]]
molecule = "CC1(C)[C@H](C=C(Cl)Cl)[C@H]1C(=O)OCc1cccc(Oc2ccccc2)c1"
qualitative_label = "inactive"

[[record]]
molecule = "COC(=O)c1ccc(C(=O)OC)cc1"
qualitative_label = "inactive"

[[record]]
molecule = "C[C@]12CC[C@@H]3c4ccc(O)cc4CC[C@H]3[C@@H]1CC[C@@H]2O"
qualitative_label = "inactive"

[[record]]
molecule = "C=C(F)C(=O)OC(C(F)(F)F)C(F)(F)F"
qualitative_label = "inactive"

[[record]]
molecule = "O=S1(=O)CC(Cl)(Cl)C(Cl)(Cl)C1"
qualitative_label = "active"

[[record]]
molecule = "CC(C)CCCC(C)(C)O"
qualitative_label = "inactive"

[[record]]
molecule = "C=CC(=O)OCC(CO)(COC(=O)C=C)COC(=O)C=C"
qualitative_label = "active"

[[record]]
molecule = "C=C(C)C(=O)OCCC(F)(F)C(F)(F)C(F)(F)C(F)(F)C(F)(F)C(F)(F)C(F)(F)C(F)(F)F"
qualitative_label = "inactive"

[[record]]
molecule = "CCCO[Si](OCCC)(OCCC)OCCC"
qualitative_label = "inactive"

[[record]]
molecule = "CC(=O)OC(C)(C)C1CC=C(C)CC1 (configuration not stated)"
qualitative_label = "inactive"

[[record]]
molecule = "COc1ccccc1NC(=O)CC(C)=O"
qualitative_label = "inactive"


---

- Read-out: Monokine induced gamma interferon (MIG), CXCL9 (gene 4283)
- test_method_notes: BSK_CASM3C_MIG: BioMAP Diversity Plus: CASM3C Assay for Monokine induced gamma interferon (MIG) Biomarker Activity (AID 2283048);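 further: MIG protein level measured by ELISA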
- measurement_conditions: primary human coronary artery smooth muscle cells; actives raise or lower the signal
The source made the active and inactive calls. Rule for the calls: active = hit-call score of the fitted dose curve at least 0.9, where 1 is the maximum; inactive = score below 0.9.
Possible outcomes: active, inactive

[[record]]
compound = "C=C(C)C(N)=O"
qualitative_label = "inactive"

[[record]]
compound = "C=C1CC/C=C(\\C)CC[C@@H]2[C@@H]1CC2(C)C"
qualitative_label = "inactive"

[[record]]
compound = "CCCCCCCC1CCCC1=O (centres undefined)"
qualitative_label = "active"

[[record]]
compound = "c1ccc(OCCOc2ccccc2)cc1"
qualitative_label = "inactive"

[[record]]
compound = "CCCO[Si](OCCC)(OCCC)OCCC"
qualitative_label = "inactive"

[[record]]
compound = "CCCCN(CCO)CCO"
qualitative_label = "inactive"

[[record]]
compound = "O=C(O)C(F)(F)C(F)(F)C(F)(F)C(F)(F)C(F)(F)C(F)(F)C(F)(F)C(F)F"
qualitative_label = "inactive"

[[record]]
compound = "COc1ccccc1NC(=O)CC(C)=O"
qualitative_label = "inactive"

[[record]]
compound = "C=CC(=O)OCC(CO)(COC(=O)C=C)COC(=O)C=C"
qualitative_label = "active"

[[record]]
compound = "Nc1ccc(N)c([N+](=O)[O-])c1"
qualitative_label = "inactive"

[[record]]
compound = "CC(=O)OC(C)(C)C1CC=C(C)CC1 (centres undefined)"
qualitative_label = "inactive"

[[record]]
compound = "c1ccc2c(c1)-c1ccc3ccc4cccc5cc-2c1c3c45"
qualitative_label = "inactive"

[[record]]
compound = "CC(C)(C)c1cccc(O)c1"
qualitative_label = "inactive"

[[record]]
compound = "c1ccc(Sc2ccccc2)cc1"
qualitative_label = "inactive"


---

- Read-out: TIMP metallopeptidase inhibitor 2 (TIMP2), TIMP2 (gene 7077)
- test_method_notes: BSK_hDFCGF_TIMP2: BioMAP Diversity Plus: hDFCGF Assay for TIMP metallopeptidase inhibitor 2 (TIMP2) Biomarker Activity (AID 2284289)
- measurement_conditions: primary human foreskin fibroblasts
The source made the active and inactive calls. The calls were made as follows: active = hit-call score of the fitted dose curve at least 0.9, where 1 is the maximum; inactive = score below 0.9.
measured_parameter: outcome

[[record]]
structure_as_smiles = "O=C(O)C(F)(F)OC(F)(F)C(F)(F)OC(F)(F)C(F)(F)C(F)(F)C(F)(F)F"
result = "inactive"

[[record]]
structure_as_smiles = "CCCO[Si](OCCC)(OCCC)OCCC"
result = "inactive"

[[record]]
structure_as_smiles = "O=C(O)C(F)(F)C(F)(F)C(F)(F)C(F)(F)C(F)(F)C(F)(F)C(F)(F)C(F)F"
result = "inactive"

[[record]]
structure_as_smiles = "CCn1cc(C(=O)O)c(=O)c2ccc(C)nc21"
result = "inactive"

[[record]]
structure_as_smiles = "O=S(=O)(O)C(F)(F)C(F)(F)OC(F)(F)C(F)(F)F"
result = "inactive"


---

- test_method_notes: ATG_TAL_CIS: Attagene CIS-FACTORIAL HepG2 Assay for human TAL Basal Promoter (AID 2282966);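 further: background control endpoint measuring basal TAL promoter reporter mRNA not a specific factor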
- measurement_conditions: HepG2 Attagene cis-factorial TAL promoter reporter; actives raise or lower the signal
- Experimental: ATG_CIS is a cell-based, multiplexed-readout assay that uses HepG2, a human liver cell line, with measurements taken at 24 hours after chemical dosing in a 24-well plate.ATG_TAL_CIS is one of 52 assay component(s) measured or calculated from the ATG_CIS assay. […] This assay endpoint, ATG_TAL_CIS, was analyzed with bidirectional fitting relative to DMSO as the negative control and baseline of activity. […]
Active and inactive are the calls of the source. How the source made its calls: active means hit-call score of the fitted dose curve at least 0.9, where 1 is the maximum; inactive means score below 0.9.
measured_parameter: outcome

[[record]]
compound = "C=CCOC(=O)/C=C\\C(=O)OCC=C"
result = "inactive"

[[record]]
compound = "CCCCCC1C(=O)CCC1CC(=O)OC (stereo unspecified)"
result = "inactive"

[[record]]
compound = "CCCCCC1CCC(=O)O1 (stereo unspecified)"
result = "inactive"

[[record]]
compound = "COc1ccc(OC)cc1"
result = "inactive"

[[record]]
compound = "CC(=O)OC/C=C(C)/C=C/C=C(C)/C=C/C1=C(C)CCCC1(C)C"
result = "inactive"

[[record]]
compound = "S=c1[nH][nH]c(=S)s1"
result = "inactive"

[[record]]
compound = "O=C1CCC(=O)N1"
result = "inactive"

[[record]]
compound = "CCOC(=O)CCCCCCCCC(=O)OCC"
result = "inactive"

[[record]]
compound = "CC(C)(O)CCc1ccccc1"
result = "inactive"

[[record]]
compound = "C[N+](C)(C)CCO"
result = "inactive"

[[record]]
compound = "NC(N)=NC(N)=NCCc1ccccc1"
result = "inactive"

[[record]]
compound = "CCCCCC#CC(=O)OC"
result = "inactive"

[[record]]
compound = "O=C1OCc2ccccc21"
result = "inactive"

[[record]]
compound = "c1ccc(Cc2ccccc2)cc1"
result = "inactive"

[[record]]
compound = "C=CC(C)CCCC(C)(C)O (stereo unspecified)"
result = "inactive"

[[record]]
compound = "CCCCCCCCOS(=O)(=O)O"
result = "inactive"

